# Study target: UniProt:P34972
# Sequence (P34972 whole entry): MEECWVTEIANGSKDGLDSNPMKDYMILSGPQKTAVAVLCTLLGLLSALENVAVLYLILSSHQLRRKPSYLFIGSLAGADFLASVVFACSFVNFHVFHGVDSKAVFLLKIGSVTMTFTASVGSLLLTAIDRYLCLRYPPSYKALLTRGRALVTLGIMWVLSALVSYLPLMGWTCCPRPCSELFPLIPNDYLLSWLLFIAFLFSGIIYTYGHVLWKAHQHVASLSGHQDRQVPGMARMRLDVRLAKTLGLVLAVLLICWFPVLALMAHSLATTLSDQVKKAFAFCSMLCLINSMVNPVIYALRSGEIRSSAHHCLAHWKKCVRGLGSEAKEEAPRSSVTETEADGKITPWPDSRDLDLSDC
# Experiment notes: functional cAMP assay, CHO cells expressing human CB2 receptors
pEC50: −log10 of the molar value.
Attribute measured: pEC50

                                    compound  attribute_measured  recorded_number
 0  NC(=O)C1CC2(CC2)CN1C(=O)c1ccc(N2CC(F)(F)C2)c(OCC2CC2)n1 (stereo not shown)               pEC50             7.81
 1  CC1C(c2ccccc2)CCCN1C(=O)c1ccc(N2CC(F)(F)C2)c(OCC2CC2)n1 (stereo not shown)               pEC50             7.39
 2  COCCN(C(=O)c1ccc(N2CC(F)(F)C2)c(OCC2CC2)n1)C(C)(C)C               pEC50             8.28
 3  NC(=O)[C@@H]1CC(F)(F)CN1C(=O)c1ccc(C2(F)CCC2)c(OCC2CC2)n1               pEC50             8.64
 4  Cc1nnc(CN(C(=O)c2ccc(N3CC(F)(F)C3)c(OCC3CC3)n2)C2CC2)o1               pEC50             6.19
 5  O=C(c1ccc(N2CC(F)(F)C2)c(OCC2CC2)n1)N1C[C@H]2COC[C@H]2C1               pEC50             6.78
 6  CC1(C)C[C@@H]2C[C@@](C)(CN2C(=O)c2ccc(N3CC(F)(F)C3)c(OCC3CC3)n2)C1               pEC50             8.17
 7  CC1(C)CC(C(N)=O)N(C(=O)c2ccc(C3CC3)c(OCC3CC3)n2)C1 (stereo not shown)               pEC50             7.83
 8  NC(=O)[C@@H]1CC(F)(F)CN1C(=O)c1ccc(C2(O)CCC2)c(OCC2CC2)n1               pEC50             7.12
 9  CNC(=O)CN(C(=O)c1ccc(N2CC(F)(F)C2)c(OCC2CC2)n1)C(C)(C)C               pEC50             6.51
10  NC(=O)[C@@H]1CCCN1C(=O)c1ccc(C2CC2)c(OCC2CC2)n1               pEC50             6.20
11  CCOC(=O)CN(C(=O)c1ccc(N2CC(F)(F)C2)c(OCC2CC2)n1)C(C)(C)C               pEC50             8.24
12  CC1(C)C[C@H](C(N)=O)N(C(=O)c2ccc(N3CC(F)(F)C3)c(OCC3CC3)n2)C1               pEC50             6.71
13  CC1CN(C(=O)c2ccc(N3CC(F)(F)C3)c(OCC3CC3)n2)CC(C)O1 (stereo not shown)               pEC50             6.22
14  O=C(c1ccc(N2CC(F)(F)C2)c(OCC2CC2)n1)N1C[C@@H]2C[C@H]1CO2               pEC50             7.00
15  O=C(O)C1C2CN(C(=O)c3ccc(N4CC(F)(F)C4)c(OCC4CC4)n3)CC21 (stereo not shown)               pEC50             6.41

Where do the numbers come from? From patent US9303012B2.
